Consider the following compounds; for each one, report its hCB2 cAMP % eff (efficacy).
# study.system: hCB2 (Homo sapiens, UniProt P34972)
# Construct: host or cells: CHO-K1 beta-arrestin cells
# Sequence (P34972 whole entry): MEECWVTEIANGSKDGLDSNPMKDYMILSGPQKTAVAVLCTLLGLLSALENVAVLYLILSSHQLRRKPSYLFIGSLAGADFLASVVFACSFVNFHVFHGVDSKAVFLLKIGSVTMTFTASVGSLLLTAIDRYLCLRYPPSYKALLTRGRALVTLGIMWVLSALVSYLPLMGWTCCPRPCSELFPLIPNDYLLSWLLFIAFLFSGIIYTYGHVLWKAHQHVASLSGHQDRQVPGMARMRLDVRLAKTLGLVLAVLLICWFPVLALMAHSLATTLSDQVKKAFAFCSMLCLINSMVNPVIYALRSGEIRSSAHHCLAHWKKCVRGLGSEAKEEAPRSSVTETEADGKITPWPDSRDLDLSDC
# run.description: functional cAMP assay, hCB2
# Format: cell-based
# condition.description: CHO-K1 cells expressing hCB2
Answer with a number only, understood to be in %.

The recorded hCB2 cAMP % eff (efficacy) for `FCCOc1ccc2ncc(NCCCc3nc(-c4ccc(F)cc4Cl)no3)cc2c1` is 102

The recorded hCB2 cAMP % eff (efficacy) for entry `COc1ccc2ncc(NCCCc3nc(-c4ccc(F)cc4Cl)no3)cc2c1` equals 101

Per the record, Fc1ccc(-c2noc(CCCNc3cnc4ccc(OC(F)(F)F)cc4c3)n2)c(Cl)c1 [Compound 12, reference compound] has hCB2 cAMP % eff (efficacy) of 100

// recorded hCB2 cAMP % eff (efficacy) for CCCCOc1c(OC)ccc2cc(C(=O)NC3CCCCC3)c(=O)[nH]c12 [NE40, reference compound] : −178
